- measurement_target: HLA-A*02:06
- method_notes: IEDB peptide-MHC binding, purified MHC/competitive/radioactivity; filed as Kd, often an IC50 or EC50 that approximates it; bounds were set here for any values at or beyond the usual limits of such assays
- recorded_conditions: source organism: Dengue virus 4 Philippines/H241/1956
pKd: −log10 of the molar value.
assay_endpoint: pKd

| residue_codes | measurement_target | assay_endpoint | number |
| --- | --- | --- | --- |
| VILAGPIPV | HLA-A*02:06 | pKd | 6.88 |
| LSMGLIAIAV | HLA-A*02:06 | pKd | 8.28 |

---

pKd by entry:
- measurement_target: HLA-B*40:13
- method_notes: IEDB peptide-MHC binding, purified MHC/competitive/fluorescence; filed as Kd, often an IC50 or EC50 that approximates it; bounds were set here for any values at or beyond the usual limits of such assays
- recorded_conditions: source organism: Escherichia coli 536
pKd: −log10 of the molar value.

| residue_codes | pKd |
| --- | --- |
| RQRAVRMVL | 7.29 |
| KEMGFSPRL | 7.47 |

---

- measurement_target: HLA-B*44:02
- method_notes: IEDB peptide-MHC binding, purified MHC/direct/fluorescence; filed as Kd, often an IC50 or EC50 that approximates it; bounds were set here for any values at or beyond the usual limits of such assays
- recorded_conditions: source organism: Rickettsia australis
pKd: −log10 of the molar value.
assay_endpoint: pKd

| residue_codes | result |
| --- | --- |
| ATYGTAVNK | ≤ 4.70 |

---

- measurement_target: HLA-B*40:01
- method_notes: IEDB peptide-MHC binding, purified MHC/direct/fluorescence; filed as Kd, often an IC50 or EC50 that approximates it; bounds were set here for any values at or beyond the usual limits of such assays
- recorded_conditions: source organism: Influenza A virus (A/camel/Mongolia/1982(H1N1))
pKd: −log10 of the molar value.
assay_endpoint: pKd

| residue_codes | assay_endpoint | number |
| --- | --- | --- |
| MEYDAVATT | pKd | 6.15 |

---

- measurement_target: HLA-A*02:12
- method_notes: IEDB peptide-MHC binding, purified MHC/competitive/fluorescence; filed as Kd, often an IC50 or EC50 that approximates it; bounds were set here for any values at or beyond the usual limits of such assays
- recorded_conditions: source organism: Bacillus anthracis str. A0488

| residue_codes | measurement_target | Kd |
| --- | --- | --- |
| IQKGMFVVK | HLA-A*02:12 | ≥ 20 µM |

---

- measurement_target: HLA-A*23:01
- method_notes: IEDB peptide-MHC binding, purified MHC/direct/fluorescence; filed as Kd, often an IC50 or EC50 that approximates it; bounds were set here for any values at or beyond the usual limits of such assays
- recorded_conditions: source organism: Bacillus cereus 03BB108

| residue_codes | Kd |
| --- | --- |
| SYMLQGLRK | ≥ 20 µM |

---

- measurement_target: HLA-A*31:01
- method_notes: IEDB peptide-MHC binding, purified MHC/competitive/radioactivity; filed as Kd, often an IC50 or EC50 that approximates it; bounds were set here for any values at or beyond the usual limits of such assays
- recorded_conditions: source organism: Dengue virus 4 Philippines/H241/1956
pKd: −log10 of the molar value.
Recorded pKd by entry

| residue_codes | pKd |
| --- | --- |
| SISNITTATR | 6.20 |
| IFLRKLTSR | 7.41 |
| CVYNMMGKR | 6.86 |
| LMCHATFTTR | 7.90 |
| STMPLVMAWR | 8.94 |
| KAIKILTGFR | 8.11 |

---

- measurement_target: HLA-B*35:01
- method_notes: IEDB peptide-MHC binding, purified MHC/competitive/fluorescence; bounds were set here for any values at or beyond the usual limits of such assays
- recorded_conditions: source organism: Homo sapiens
pIC50: −log10 of the molar value.
assay_endpoint: pIC50

| residue_codes | number |
| --- | --- |
| MVRVLTVIKEY | 7.69 |

---

- measurement_target: HLA-A*11:01
- method_notes: IEDB peptide-MHC binding, purified MHC/competitive/radioactivity; filed as Kd, often an IC50 or EC50 that approximates it; bounds were set here for any values at or beyond the usual limits of such assays
- recorded_conditions: source organism: SARS coronavirus Tor2
pKd: −log10 of the molar value.
Parameter threshold = 7. Response is TRUE when pKd meets or exceeds it, else FALSE.

| residue_codes | label_class |
| --- | --- |
| RQFHQKLLK | TRUE |
| SFYVYANGGR | FALSE |
| FTTSLSLHK | FALSE |
| KLLQTLVLK | FALSE |
| SVVQKPVDVK | TRUE |
| TSSTCMMCYK | TRUE |
| SLYMAISPK | TRUE |
| KLSYGIATVR | FALSE |
| AAYYFMKFR | TRUE |
| ALCTLLHLHR | FALSE |
| TLLPLTQYNR | FALSE |
| RIDGAHLTK | TRUE |
| KLSAGVEFLK | TRUE |

---

Each entry below lists one item and its recorded Kd value.
- measurement_target: HLA-B*57:01
- method_notes: IEDB peptide-MHC binding, purified MHC/competitive/radioactivity; filed as Kd, often an IC50 or EC50 that approximates it; bounds were set here for any values at or beyond the usual limits of such assays
- recorded_conditions: source organism: Dengue virus 3 Martinique/1243/1999

| residue_codes | Kd |
| --- | --- |
| IASSGMLWMA | 10.4 µM |
| PTSYLDVDLH | ≥ 37.4 µM |

---

- measurement_target: HLA-B*40:01
- method_notes: IEDB peptide-MHC binding, purified MHC/direct/fluorescence; filed as Kd, often an IC50 or EC50 that approximates it; bounds were set here for any values at or beyond the usual limits of such assays
- recorded_conditions: source organism: Shigella flexneri

| residue_codes | Kd |
| --- | --- |
| KTTLFHTFK | ≥ 20 µM |

---

- measurement_target: HLA-B*15:02
- method_notes: IEDB peptide-MHC binding, purified MHC/direct/fluorescence; filed as Kd, often an IC50 or EC50 that approximates it; bounds were set here for any values at or beyond the usual limits of such assays
- recorded_conditions: source organism: Yersinia pestis CA88-4125
assay_endpoint: Kd (nM)

| residue_codes | number |
| --- | --- |
| MQLQLNCAY | 15 |

---

- measurement_target: HLA-B*40:01
- method_notes: IEDB peptide-MHC binding, purified MHC/direct/fluorescence; filed as Kd, often an IC50 or EC50 that approximates it; bounds were set here for any values at or beyond the usual limits of such assays
- recorded_conditions: source organism: Escherichia coli O6

| residue_codes | measurement_target | Kd |
| --- | --- | --- |
| TPVWHVTSA | HLA-B*40:01 | ≥ 20 µM |

---

Entries and their measured pKd follow.
- measurement_target: HLA-B*08:01
- method_notes: IEDB peptide-MHC binding, purified MHC/competitive/radioactivity; filed as Kd, often an IC50 or EC50 that approximates it; bounds were set here for any values at or beyond the usual limits of such assays
- recorded_conditions: source organism: Dengue virus 1 Brazil/97-11/1997
pKd: −log10 of the molar value.
assay_endpoint: pKd

| residue_codes | assay_endpoint | number |
| --- | --- | --- |
| IAFLRFLAI | pKd | 8.90 |
| KKMIRPQPM | pKd | 6.73 |
| QMQRKHGGML | pKd | 6.36 |
| LLMLLPTAL | pKd | 8.19 |

---

- measurement_target: HLA-C*06:02
- method_notes: IEDB peptide-MHC binding, purified MHC/competitive/fluorescence; filed as Kd, often an IC50 or EC50 that approximates it; bounds were set here for any values at or beyond the usual limits of such assays
- recorded_conditions: source organism: Vibrio vulnificus YJ016

| residue_codes | Kd (nM) |
| --- | --- |
| KMFNRASYF | 68 |

---

- measurement_target: HLA-A*02:06
- method_notes: IEDB peptide-MHC binding, purified MHC/competitive/radioactivity; filed as Kd, often an IC50 or EC50 that approximates it; bounds were set here for any values at or beyond the usual limits of such assays
- recorded_conditions: source organism: Vaccinia virus WR
pKd: −log10 of the molar value.
Classify by measured pKd: 1.0 if it is equal to or exceeds 7, 0.0 if it is smaller.

| residue_codes | label_class |
| --- | --- |
| MAFDISVNA | 1.0 |
| FVNFVKDMI | 0.0 |
| HLENDKIEDL | 0.0 |
| YVHSLLYSSM | 0.0 |
| YIILFILFFA | 0.0 |
| IMTSTRTIIL | 0.0 |
| DMICCDSRIV | 0.0 |
| DITNILGGV | 0.0 |
| IAGGVCYYLL | 0.0 |
| NIKISLNEIL | 0.0 |
| LAEHISDSI | 0.0 |
| IASGQRCHFI | 0.0 |
| YLSKEDRIIT | 0.0 |
| VQLPKRGVRV | 1.0 |
| ALVSDCAST | 0.0 |
| LISSDGARVI | 0.0 |
| LTKDRKMLEL | 0.0 |
| KLLNMRDLIV | 1.0 |
| LLNMRDLIV | 0.0 |
| DLNIFMTLV | 0.0 |
